Recorded values, source paper PMC8769072.

Molecular target: VASP 1-114, P50552
Sequence (P50552 1-114): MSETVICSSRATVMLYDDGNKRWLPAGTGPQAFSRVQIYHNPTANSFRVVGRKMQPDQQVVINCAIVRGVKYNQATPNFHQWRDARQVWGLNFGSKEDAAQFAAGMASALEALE

[
  {
    "binder": "FPPPPPETELPLPPIE [RAPH1, Q70E73]",
    "selected by phage display": "confidence 3 (active)"
  },
  {
    "binder": "FPPPPLPDSAIFLPPS [INPPL1, O15357]",
    "selected by phage display": "confidence 3 (active)"
  }
]
